LD50 overview
- ASSAY_NAME: in vivo
- CONDITION_LABEL: mouse, iv, female DS mice
State the answer as a number, implicitly in mg/kg.

Task: Returns the measured LD50 for the input molecule. Input: Cc1noc2cccc(OCC(O)CNC(C)C)c12 (centres unmarked)
Result: 45

Task: Subsequent entry: Cc1noc2cccc(OCC(O)CNC(C)(C)C)c12 (centres unmarked)
Result: 41.8
